Sourced from patent US20200407398A1

system: S. aureus ATCC 29213; format: cell-based
Peptide text beside a SMILES is read from it. * marks the point of attachment. Acetyl(1-adamantyl) = O=C(CC12CC3CC(CC(C3)C1)C2)*; Palmitoyl = CCCCCCCCCCCCCCCC(=O)*; Lauroyl = CCCCCCCCCCCC(=O)*; Octanoyl = CCCCCCCC(=O)*
Documented MIC across a set of molecules
measured-property: MIC (µg/mL)

INSERT INTO results (molecule, output_unit, result_comparator, recorded_measurement) VALUES
  ('CCCCCCCCCCCCCCCC(=O)N1CCC[C@H]1C(=O)N[C@@H](CCCNC(=N)N)C(=O)N1CCC[C@H]1C(=O)N[C@@H](Cc1c[nH]c2ccccc12)C(=O)N1CCC[C@H]1C(=O)N[C@@H](CCCNC(=N)N)C(=O)N1CCC[C@H]1C(N)=O [Compound C16-PWP, CH3(CH2)14CO-PRPWPRP-NH2] (Palmitoyl-PRPWPRP-NH2)', 'µg/mL', '=', 8),
  ('CCCCCCCC(=O)N1CCC[C@H]1C(=O)N[C@@H](CCCNC(=N)N)C(=O)N1CCC[C@H]1C(=O)N[C@@H](Cc1c[nH]c2ccccc12)C(=O)N1CCC[C@H]1C(=O)N[C@@H](CCCNC(=N)N)C(=O)N1CCC[C@H]1C(N)=O [Compound C8-PWP, CH3(CH2)6CO-PRPWPRP-NH2] (Octanoyl-PRPWPRP-NH2)', 'µg/mL', '>', 128),
  ('CCCCCCCCCCCCCCCC(=O)N1CCC[C@H]1C(=O)N[C@@H](CCCNC(=N)N)C(=O)N1CCC[C@H]1C(=O)NCC(=O)N1CCC[C@H]1C(=O)N[C@@H](CCCNC(=N)N)C(=O)N1CCC[C@H]1C(N)=O [Compound C16-PGP, CH3(CH2)14CO-PRPGPRP-NH2] (Palmitoyl-PRPGPRP-NH2)', 'µg/mL', '=', 32),
  ('CCCCCCCCCCCCCCCC(=O)N1CCC[C@H]1C(=O)N[C@@H](CCCNC(=N)N)C(=O)N1CCC[C@H]1C(=O)N[C@@H](CCCNC(=N)N)C(=O)N1CCC[C@H]1C(=O)N[C@@H](CCCNC(=N)N)C(=O)N1CCC[C@H]1C(N)=O [Compound C16-PRP, CH3(CH2)14CO-PRPRPRP-NH2] (Palmitoyl-PRPRPRP-NH2)', 'µg/mL', '=', 8),
  ('N=C(N)NCCC[C@H](NC(=O)[C@@H]1CCCN1C(=O)[C@H](Cc1c[nH]c2ccccc12)NC(=O)[C@@H]1CCCN1C(=O)[C@H](CCCNC(=N)N)NC(=O)[C@@H]1CCCN1C(=O)CC12CC3CC(CC(C3)C1)C2)C(=O)N1CCC[C@H]1C(N)=O [Ad-PWP, Adamantyl-CH2CO-PRPWPRP-NH2] ({Acetyl(1-adamantyl)}-PRPWPRP-NH2)', 'µg/mL', '>', 128),
  ('CCCCCCCCCCCC(=O)N1CCC[C@H]1C(=O)N[C@@H](CCCNC(=N)N)C(=O)N1CCC[C@H]1C(=O)N[C@@H](CC(C)C)C(=O)N1CCC[C@H]1C(=O)N[C@@H](CCCNC(=N)N)C(=O)N1CCC[C@H]1C(N)=O [Compound C12-PLP, CH3(CH2)10CO-PRPLPRP-NH2] (Lauroyl-PRPLPRP-NH2)', 'µg/mL', '=', 128),
  ('CCCCCCCCCCCC(=O)N1CCC[C@H]1C(=O)N[C@@H](CCCNC(=N)N)C(=O)N1CCC[C@H]1C(=O)N[C@@H](Cc1c[nH]c2ccccc12)C(=O)N1CCC[C@H]1C(=O)N[C@@H](CCCNC(=N)N)C(=O)N1CCC[C@H]1C(N)=O [Compound C12-PWP, CH3(CH2)10CO-PRPWPRP-NH2] (Lauroyl-PRPWPRP-NH2)', 'µg/mL', '=', 32),
  ('CCCCCCCCCCCC(=O)N1CCC[C@H]1C(=O)N[C@@H](CCCNC(=N)N)C(=O)N1CCC[C@H]1C(=O)N[C@@H](CCCNC(=N)N)C(=O)N1CCC[C@H]1C(=O)N[C@@H](CCCNC(=N)N)C(=O)N1CCC[C@H]1C(N)=O [Compound C12-PRP, CH3(CH2)10CO-PRPRPRP-NH2] (Lauroyl-PRPRPRP-NH2)', 'µg/mL', '=', 128);
